# assay: Human HepG2 cell viability assay in 384 well format
# Assay type: toxicity, cell-based
# Parameters: dose 125 nL, time 70.5 hour; concentration not given beside the values
# conditions: HepG2 cells, read-out: Inhibition
Recorded cytotoxicity at 70.5 h, one value per entry.

- compound: "O=S(=O)(NC1=NCN(CCc2cccs2)CN1)c1ccc(F)cc1"
  cytotoxicity at 70.5 h, %: -20.8
- compound: "CN(C)C[C@@H]1CN(C(=O)c2cc(-c3ccccc3)n[nH]2)C[C@@H]1CO"
  cytotoxicity at 70.5 h, %: 16.6
- compound: "COc1ccc(C2CCN(S(=O)(=O)CCCC#N)CC2)cc1"
  cytotoxicity at 70.5 h, %: -9.02
- compound: "CCc1ccc(CN(C)c2ccc(-c3nc(COC)no3)cn2)nc1"
  cytotoxicity at 70.5 h, %: -4.59
- compound: "CCCNC(=O)CCOc1cccc(F)c1"
  cytotoxicity at 70.5 h, %: -3.12
- compound: "CC(C)NC(=O)c1ccc2c(c1)C1(CCN(C)CC1)C(=O)N2"
  cytotoxicity at 70.5 h, %: 2.1
- compound: "O=C1NCCCc2[nH]c(Cc3cccc(F)c3)nc21"
  cytotoxicity at 70.5 h, %: -8.57
- compound: "O=C(NC1CCN(CC2CC2)C1)N1CCC(OC2CCCCC2)CC1 (configuration not stated)"
  cytotoxicity at 70.5 h, %: 14.5
- compound: "Cc1cc2c(=O)n3c(nc2s1)CCN(C(=O)c1cnn(C)c1C)CC3"
  cytotoxicity at 70.5 h, %: -14.8
- compound: "CN(C)Cc1nn(C)c2c1CN(C(=O)Nc1ccc(F)cc1)C2"
  cytotoxicity at 70.5 h, %: -3.55
- compound: "O=C(C1CC1)N1CC[C@H]2[C@@H]1CCC(=O)N2c1ccccc1"
  cytotoxicity at 70.5 h, %: -2.42
- compound: "COc1ccc(C2CNCCN2C(=O)c2cccc3cccnc23)cc1 (configuration not stated)"
  cytotoxicity at 70.5 h, %: 12.4
- compound: "Cc1nc(C(C)(C)NCc2ncc(C(C)C)o2)sc1C"
  cytotoxicity at 70.5 h, %: -5.11
- compound: "CCc1nc(N2CCOCC2)ncc1C(=O)NC(c1cccs1)C(C)C (configuration not stated)"
  cytotoxicity at 70.5 h, %: -0.678
- compound: "CCc1nsc(N2CCN(CC(=O)Nc3c(C)n[nH]c3C)CC2)n1"
  cytotoxicity at 70.5 h, %: 2.39
- compound: "c1ccc(CN2C[C@H]3CC[C@@H]2CN(Cc2nnc(C4CC4)o2)C3)cc1"
  cytotoxicity at 70.5 h, %: -1.91
- compound: "O=C(CCCc1cn[nH]c1)N1C[C@@H](CN2CCCC2)C[C@H](CO)C1"
  cytotoxicity at 70.5 h, %: -6.82
- compound: "O=C1NCCCCC1SCc1coc(-c2ccc(F)cc2)n1 (configuration not stated)"
  cytotoxicity at 70.5 h, %: 20.1
- compound: "CN(C)C(=O)N1CCC2(C1)CN(c1cccnc1)C(=O)CN2C (configuration not stated)"
  cytotoxicity at 70.5 h, %: -7.38
- compound: "O=C(CN1CCCC1Cn1cncn1)NCCOc1ccccc1 (configuration not stated)"
  cytotoxicity at 70.5 h, %: -2.53
- compound: "Cc1cccc(CN(C(=O)CS(C)(=O)=O)C(C)C)c1"
  cytotoxicity at 70.5 h, %: -2.96
- compound: "O=C(CNC(=O)c1c(F)cccc1Cl)Nc1ccc(F)cn1"
  cytotoxicity at 70.5 h, %: -12.6
- compound: "Cc1ccc2nc(-c3cnc(N)nc3)c(C)c(C(=O)N(C)C)c2c1"
  cytotoxicity at 70.5 h, %: 11.2
- compound: "CNC(=O)NC(=O)CCSCc1cc(F)cc2cccnc12"
  cytotoxicity at 70.5 h, %: -27.1
- compound: "Cc1ccc(O[C@@H]2C[C@H]3CN(C(=O)Cc4ccccn4)CCN3C2)cc1"
  cytotoxicity at 70.5 h, %: 17.9
- compound: "COc1c(CNC2CCN(c3ncccn3)CC2)c(C(C)C)nn1C"
  cytotoxicity at 70.5 h, %: 2.8
- compound: "CN(Cc1ccco1)C(=O)[C@@]12CNC[C@@H]1CN(C1CCCC1)C2"
  cytotoxicity at 70.5 h, %: -23
- compound: "O=C(Cc1ccc(CO)cc1)N1CCN(c2ccccc2Cl)C(=O)C1"
  cytotoxicity at 70.5 h, %: -9.48
- compound: "COc1cccc(CNC(C)c2ccc(-n3ccnc3)cc2)c1O (configuration not stated)"
  cytotoxicity at 70.5 h, %: -5.24
- compound: "CCc1noc(CCC(=O)N[C@@H]2CC[C@@H](n3ccnc3)[C@@H]2O)n1"
  cytotoxicity at 70.5 h, %: -8.61
- compound: "c1cc(N2CCCC2c2cnccn2)ncn1 (configuration not stated)"
  cytotoxicity at 70.5 h, %: -10
- compound: "OCC1(O)CCCN(Cc2noc(-c3ccccc3)n2)C1 (configuration not stated)"
  cytotoxicity at 70.5 h, %: -10.2
- compound: "COc1ccc(CNC(C)Cn2cccn2)cc1OC (configuration not stated)"
  cytotoxicity at 70.5 h, %: 1.53
- compound: "CS(=O)(=O)NCc1cncc2c1CCN(C(=O)c1cccnc1)C2"
  cytotoxicity at 70.5 h, %: -5.3
- compound: "N#CCCN(Cc1ccco1)C(=O)c1ccc(OCC2CC2)cc1"
  cytotoxicity at 70.5 h, %: -4.89
- compound: "Cc1nc(C)n(CC2CCCN2CCCOc2ccc(C#N)cc2)n1 (configuration not stated)"
  cytotoxicity at 70.5 h, %: -4.85
- compound: "Cc1csc(CNC(=O)Nc2ccc3c(c2)OCO3)n1"
  cytotoxicity at 70.5 h, %: -7.99
- compound: "CCN(C(=O)Nc1cc(C)on1)C(C)c1cccc(O)c1 (configuration not stated)"
  cytotoxicity at 70.5 h, %: -9.79
- compound: "CC(C)c1cc(C(=O)N2CCN(C)[C@@H]3CS(=O)(=O)C[C@@H]32)no1"
  cytotoxicity at 70.5 h, %: -7.29
- compound: "CC(Sc1nnnn1C1CCOCC1)C(=O)NC1CCCCC1 (configuration not stated)"
  cytotoxicity at 70.5 h, %: -3.49
- compound: "CC(C)(C)c1coc([C@@H]2COCCN2Cc2cnc3ccccc3c2)n1"
  cytotoxicity at 70.5 h, %: 0.0852
- compound: "CCC(C)(NCC(=O)NC(C)C)c1nccs1 (configuration not stated)"
  cytotoxicity at 70.5 h, %: -3.03
- compound: "O=C(c1ccc(Cl)cn1)N1CCC(COCc2ccccc2)C1 (configuration not stated)"
  cytotoxicity at 70.5 h, %: 15.8
- compound: "CCn1c2c(ccc1=O)CC(NCc1cnn(C)c1)CC2 (configuration not stated)"
  cytotoxicity at 70.5 h, %: -4.95
- compound: "Cc1ccc(S(=O)(=O)NC(=O)COc2ccc(CC#N)cc2)s1"
  cytotoxicity at 70.5 h, %: 2.71
- compound: "CN(C)Cc1ccnc(C2CN(CCCc3ccccc3)CCO2)n1 (configuration not stated)"
  cytotoxicity at 70.5 h, %: -6.75
- compound: "N[C@@H]1CC[C@H](C(=O)NCCn2cc(Cl)cn2)C1"
  cytotoxicity at 70.5 h, %: 3.97
